- measurement-target: BMP2KA (Homo sapiens)
- Construct: purchased in-house DSF kinase panel (SGC-style construct names; the trailing letter is the construct ID)
- Sequence (Q9NSY1 38-345): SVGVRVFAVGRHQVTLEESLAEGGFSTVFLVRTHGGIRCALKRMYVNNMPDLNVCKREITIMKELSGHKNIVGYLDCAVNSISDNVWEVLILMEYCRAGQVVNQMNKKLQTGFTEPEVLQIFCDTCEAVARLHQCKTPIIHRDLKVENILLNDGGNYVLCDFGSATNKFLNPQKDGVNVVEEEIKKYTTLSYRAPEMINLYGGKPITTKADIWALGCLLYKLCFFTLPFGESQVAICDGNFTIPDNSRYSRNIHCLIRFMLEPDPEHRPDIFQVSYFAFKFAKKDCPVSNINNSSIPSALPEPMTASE
- test-method-notes: DSF Tm panel
- Assay type: binding
- condition-details: 10 μM compound
Examples of compounds with documented ΔTm at 10 µM follow.
Supply the numeric figure in °C, leaving out any unit text.

[[record]]
smiles_notation = "COc1cc(CNC(=O)Nc2ccc3cc2OCCOCCNc2ccn4ncc-3c4n2)ccc1F"
assay_result = 10.2

[[record]]
smiles_notation = "O=C(NCc1ccc(C(F)(F)F)cc1)Nc1ccc2cc1OCCOCCNc1ccn3ncc-2c3n1"
assay_result = 7.7

[[record]]
smiles_notation = "COc1cccc(CNC(=O)Nc2ccc3cc2OCCOCCNc2ccn4ncc-3c4n2)c1"
assay_result = 9.8

[[record]]
smiles_notation = "Cc1cc(Cl)ccc1CNC(=O)Nc1ccc2cc1OCCOCCNc1ccn3ncc-2c3n1"
assay_result = 5.9


# input Observed ΔTm at 10 µM on BMP2KA (Homo sapiens) for "O=C(NCc1ccc(Cl)cc1Cl)Nc1ccc2cc1OCCOCCNc1ccn3ncc-2c3n1" , please.
# output 6.7
